Values compiled from patent US10760110B2.

Tested on: K. pneumoniae NVT1001 strains with ESBL or AmpC β-lactamase plasmids
Assay: Etest MIC of β-lactams, OmpK35/36 loss, ΔramR and/or extended-spectrum β-lactamase and AmpC β-lactamase (Table 8)
Type: cell-based, Klebsiella pneumoniae
Settings: Klebsiella pneumoniae, CTX-M-14 on pACYC177; ΔramRΔ35 (ΔramRΔompK35 mutant)
Endpoint: MIC (µg/mL)
Give a bare numeral; the unit µg/mL is implied.

Compound: CO[C@@]1(NC(=O)Cc2cccs2)C(=O)N2C(C(=O)O)=C(COC(N)=O)CS[C@@H]21 [Cefoxitin]
MIC / µg/mL: 64
//
Compound: C[C@@H](O)[C@H]1C(=O)N2C(C(=O)O)=C(S[C@@H]3CN[C@H](C(=O)Nc4cccc(C(=O)O)c4)C3)[C@H](C)[C@H]12 [Ertapenem]
MIC / µg/mL: 0.25

Here is another compound to look at.
*Q* Tell me its MIC given C[C@@H](O)[C@H]1C(=O)N2C(C(=O)O)=C(S[C@@H]3CN[C@H](CNS(N)(=O)=O)C3)[C@H](C)[C@H]12 [Doripenem] as the entry.
*A* 0.06

====

Tested on: A. baumannii KW1 strains with tet resistance gene plasmids
Assay: Etest MIC of tetracyclines, tet resistance gene (Table 20)
Type: cell-based, Acinetobacter baumannii
Conditions: Acinetobacter baumannii, KW1, Tet(M) on pYMAb5
Endpoint: MIC (µg/mL)
Give a bare numeral; the unit µg/mL is implied.

Molecule: C[C@H]1c2cccc(O)c2C(=O)C2=C(O)[C@]3(O)C(=O)C(C(N)=O)=C(O)[C@@H](N(C)C)[C@@H]3[C@@H](O)[C@@H]21 [Doxycycline, doxycycline]
Reported result: 192

Molecule: CN(C)[C@@H]1C(O)=C(C(N)=O)C(=O)[C@@]2(O)C(O)=C3C(=O)c4c(O)cccc4[C@@](C)(O)[C@H]3C[C@@H]12 [Tetracycline, tetracycline]
Reported result: 48

Molecule: CN(C)c1cc(NC(=O)CNC(C)(C)C)c(O)c2c1C[C@H]1C[C@H]3[C@H](N(C)C)C(O)=C(C(N)=O)C(=O)[C@@]3(O)C(O)=C1C2=O [Tigecycline, tigecycline]
Reported result: 0.38

Here is another molecule to look at.
*Q* Tell me its MIC given CN(C)c1ccc(O)c2c1C[C@H]1C[C@H]3[C@H](N(C)C)C(O)=C(C(N)=O)C(=O)[C@@]3(O)C(O)=C1C2=O [Minocycline] as the entry.
*A* 2

====

Known MIC of a selection of molecules
Test system: K. pneumoniae NVT1001 strains with QnrB, QnrS or AAC(6′)-Ib-cr plasmids
Test: Etest MIC of quinolones, GyrA/ParC mutations, ΔramR and/or QnrB, QnrS or AAC(6′)-Ib-cr (Table 12)
Assay type: cell-based
Details: Klebsiella pneumoniae, QnrS on pACYC177; S83I mutant
Give a bare numeral; the unit µg/mL is implied.

Molecule: COc1c(N2C[C@@H]3CCCN[C@@H]3C2)c(F)cc2c(=O)c(C(=O)O)cn(C3CC3)c12
Reported result: 8

Molecule: CCn1cc(C(=O)O)c(=O)c2cc(F)c(N3CCNCC3)cc21
Reported result: 8

Molecule: CC1COc2c(N3CCN(C)CC3)c(F)cc3c(=O)c(C(=O)O)cn1c23 (centres unmarked)
Reported result: 8

Here is another molecule to look at.
*Q* Tell me its MIC given C[C@H]1COc2c(N3CCN(C)CC3)c(F)cc3c(=O)c(C(=O)O)cn1c23 as the entry.
*A* 4
